Provenance of the data: ChEMBL document CHEMBL3885861

// reported Neu for each item listed
species on record: Rattus norvegicus; experiment: Open TG-GATES - Regimen: Daily Repeat; format: toxicity, organism-based, Sprague-Dawley; parameters: regimen Daily Repeat, gender Male, age 6 weeks; conditions: in vivo, po, 0 mg/kg, […], tissue Blood, route gavage, dose level Control, time 7 day
Field format: number, assumed %, no unit text.

1) O=C(OC[C@H]1O[C@@H](OC(=O)c2cc(O)c(O)c(OC(=O)c3cc(O)c(O)c(O)c3)c2)[C@H](OC(=O)c2cc(O)c(O)c(OC(=O)c3cc(O)c(O)c(O)c3)c2)[C@@H](OC(=O)c2cc(O)c(O)c(OC(=O)c3cc(O)c(O)c(O)c3)c2)[C@@H]1OC(=O)c1cc(O)c(O)c(OC(=O)c2cc(O)c(O)c(O)c2)c1)c1cc(O)c(O)c(OC(=O)c2cc(O)c(O)c(O)c2)c1    14.4
2) CCCc1cc(=O)[nH]c(=S)[nH]1    15.8
3) CNC(=C[N+](=O)[O-])NCCSCc1ccc(CN(C)C)o1    18.4
4) CN1C(=O)CCS(=O)(=O)C1c1ccc(Cl)cc1 (stereo unspecified)    16.6

The recorded Neu for "COC(=O)C1=C(C)NC(C)=C(C(=O)OC)C1c1ccccc1[N+](=O)[O-]" is 18.2

So for "CC(C)NNC(=O)c1ccncc1" , the logged Neu turned out to be 13.8

###

species on record: Rattus norvegicus; assay: Open TG-GATES - Regimen: Daily Repeat; assay type: toxicity, organism-based, Sprague-Dawley; design: regimen Daily Repeat, gender Male, age 6 weeks; details: in vivo, po, 300 mg/kg, […], tissue Blood, route gavage, dose level Middle, time 14 day
Measure: Lym (%)
// note: answer is a bare numeric in %

Some compounds with known Lym results, for comparison:
1) CCOc1ccc(NC(C)=O)cc1    74.4
2) COC(=O)C1=C(C)NC(C)=C(C(=O)OC)C1c1ccccc1[N+](=O)[O-]    74.8
3) CN/C(=N/CCSCc1nc[nH]c1C)NC#N    80

// below: Lym requested for another compound
Briefly, Lym measured for "CNC(=C[N+](=O)[O-])NCCSCc1ccc(CN(C)C)o1" : 76.8

###

organism: Rattus norvegicus; assay: Open TG-GATES - Regimen: Single; type: toxicity, organism-based, Sprague-Dawley; set-up: regimen Single, gender Male, age 6 weeks; settings: in vivo, po, 100 mg/kg, 24 h, tissue Plasma, route gavage, dose level Low
Cut-off 0.1 mg/dL on TBIL, inclusive. At or above means y; below means n.

Consider the following illustrative entries.
1. CN/C(=N/CCSCc1nc[nH]c1C)NC#N    y
2. COC(=O)C1=C(C)NC(C)=C(C(=O)OC)C1c1ccccc1[N+](=O)[O-]    n

Exercise: Given "Cc1nnc2n1-c1ccc(Cl)cc1C(c1ccccc1Cl)=NC2" , state whether its TBIL is at least 0.1 mg/dL.
Solution: n

Exercise: Tell me whether TBIL is at least 0.1 mg/dL here: "O=C(OC[C@H]1O[C@@H](OC(=O)c2cc(O)c(O)c(OC(=O)c3cc(O)c(O)c(O)c3)c2)[C@H](OC(=O)c2cc(O)c(O)c(OC(=O)c3cc(O)c(O)c(O)c3)c2)[C@@H](OC(=O)c2cc(O)c(O)c(OC(=O)c3cc(O)c(O)c(O)c3)c2)[C@@H]1OC(=O)c1cc(O)c(O)c(OC(=O)c2cc(O)c(O)c(O)c2)c1)c1cc(O)c(O)c(OC(=O)c2cc(O)c(O)c(O)c2)c1"
Solution: y
